Sourced from the kinase profiling compilation of Christmann-Franck et al. (2016)

Recorded measurements of kinase still bound, per cent of control, one per entry
- TARGET_SYSTEM: RIOK3 (human) (UniProt O14730)
- Sequence (O14730 whole entry, looked up): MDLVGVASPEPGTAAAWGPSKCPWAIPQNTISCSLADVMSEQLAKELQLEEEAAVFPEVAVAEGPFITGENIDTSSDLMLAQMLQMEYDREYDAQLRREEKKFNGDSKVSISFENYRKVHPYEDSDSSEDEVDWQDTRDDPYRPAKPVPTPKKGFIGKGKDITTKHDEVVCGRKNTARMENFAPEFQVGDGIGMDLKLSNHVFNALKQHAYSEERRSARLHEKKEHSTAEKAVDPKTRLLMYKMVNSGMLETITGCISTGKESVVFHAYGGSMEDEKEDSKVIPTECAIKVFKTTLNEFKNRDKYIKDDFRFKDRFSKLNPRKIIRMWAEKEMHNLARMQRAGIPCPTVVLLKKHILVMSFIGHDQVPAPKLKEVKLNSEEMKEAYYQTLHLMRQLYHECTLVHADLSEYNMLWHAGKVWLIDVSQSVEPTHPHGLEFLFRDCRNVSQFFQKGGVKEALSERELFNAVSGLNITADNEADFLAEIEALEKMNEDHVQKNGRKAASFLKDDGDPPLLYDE
- RUN_DESCRIPTION: KINOMEscan competition binding
- RUN_PARAMETERS: compound 10.0 µM

{"columns": ["MOLECULE_SMILES", "kinase still bound, per cent of control"],
 "data": [
  ["N=C1NC(=O)/C(=C/c2ccc(-c3ccccc3O)o2)S1", "20%"],
  ["COc1cc(N2CCN(C)CC2)ccc1Nc1ncc2c(n1)N(c1ccccc1)CCC(=O)N2", "23%"],
  ["CN1C(=O)c2ccccc2N(C)c2nc(Nc3ccc(N4CCC(O)CC4)cc3)ncc21", "82%"],
  ["CS(=O)(=O)Nc1ccc(-c2cc(/C=C3\\SC(=N)NC3=O)c[nH]c2=O)cc1", "6%"],
  ["Nc1cccc(-c2cc(/C=C3\\SC(=O)NC3=O)c[nH]c2=O)c1", "8.6%"]
]}

###

- System: FLT3 (human), P36888 [N841I]
- RUN_DESCRIPTION: KINOMEscan competition binding
- RUN_PARAMETERS: compound 10.0 µM
Recorded measurements of kinase still bound, per cent of control, one per entry

{"columns": ["MOLECULE_SMILES", "kinase still bound, per cent of control"],
 "data": [
  ["CN1C(=O)c2ccccc2N(C)c2nc(NS(=O)(=O)c3ccc(N)cc3)ncc21", "90%"],
  ["CN1C(=O)c2ccccc2N(C)c2nc(Nc3ccc(N4CCC(O)CC4)cc3)ncc21", "80%"],
  ["COc1cc(N2CCN(C)CC2)ccc1Nc1ncc2c(n1)N(C)c1ccccc1N(C)C2=O", "92%"],
  ["N=C1NC(=O)/C(=C/c2ccc(-c3cncc4ccccc34)o2)S1", "0.95%"],
  ["COc1cc(N2CCN(C)CC2)ccc1Nc1ncc2c(n1)N(C(C)C)c1ccccc1C(=O)N2", "0.35%"],
  ["CC(C)Oc1cc(N2CCN(C)CC2)ccc1Nc1ncc2c(n1)N(C)c1ccccc1C(=O)N2", "0.6%"],
  ["CN1C(=O)[C@H]2CCC[C@H]2N(C2CCCC2)c2nc(Nc3ccc(C(N)=O)cc3)ncc21", "5.2%"],
  ["O=C1NC(=S)S/C1=C\\c1ccc(-c2cncc3ccccc23)o1", "4%"],
  ["O=C1NC(=O)/C(=C/c2c[nH]c(=O)c(-c3ccc(N4CCNCC4)nc3)c2)S1", "67%"]
]}

###

- TARGET_SYSTEM: MST4 (human) (UniProt Q9P289)
- Sequence (Q9P289 whole entry, looked up): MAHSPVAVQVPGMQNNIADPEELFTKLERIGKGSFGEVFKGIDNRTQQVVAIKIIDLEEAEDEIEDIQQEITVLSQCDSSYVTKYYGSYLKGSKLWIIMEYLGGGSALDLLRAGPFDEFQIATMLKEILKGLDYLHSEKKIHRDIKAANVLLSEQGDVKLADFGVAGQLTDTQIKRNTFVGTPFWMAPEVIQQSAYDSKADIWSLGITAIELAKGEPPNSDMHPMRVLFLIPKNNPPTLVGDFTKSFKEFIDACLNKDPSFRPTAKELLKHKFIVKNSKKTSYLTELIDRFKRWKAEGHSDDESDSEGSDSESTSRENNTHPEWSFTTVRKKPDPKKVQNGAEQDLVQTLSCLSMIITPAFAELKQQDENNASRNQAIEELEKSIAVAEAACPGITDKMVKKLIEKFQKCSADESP
- RUN_DESCRIPTION: KINOMEscan competition binding
- RUN_PARAMETERS: compound 10.0 µM

{"columns": ["MOLECULE_SMILES", "kinase still bound, per cent of control (%)"],
 "data": [
  ["COc1cc(N2CCN(C)CC2)ccc1Nc1ncc2c(n1)N(C)c1sccc1C(=O)N2C", 70],
  ["N=C1NC(=O)/C(=C/c2ccc(-c3ccc(F)cc3O)o2)S1", 32],
  ["CN1C(=O)c2ccccc2N(C)c2nc(NS(=O)(=O)c3ccc(N)cc3)ncc21", 100],
  ["CN1CCN(c2ccc(C(=O)Nc3ncc4c(n3)N(C)c3ccccc3C(=O)N4C)cc2)CC1", 100],
  ["COc1cc(N2CCN(C)CC2)ccc1Nc1ncc2c(n1)N(C)c1ccccc1N(C)C2=O", 91],
  ["COc1cc(N2CCN(C)CC2)ccc1Nc1ncc2c(n1)Nc1ccccc1NC2=O", 67],
  ["O=C1NC(=O)/C(=C/c2c[nH]c(=O)c(-c3ccc(N4CCNCC4)nc3)c2)S1", 80],
  ["CN1C(=O)c2ccccc2N(C)c2nc(Nc3ccc(N4CCC(O)CC4)cc3)ncc21", 27],
  ["COc1cc(N2CCC(O)CC2)ccc1Nc1ncc2c(n1)N1CCc3cccc(c31)C(=O)N2C", 99]
]}
